Target: T1, hepcidin 20 (SEQ ID NO: 96) (human)
T1 construct: also called Hepc20; hepc20
T1 peptide: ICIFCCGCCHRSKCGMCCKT
Experiment: BIAcore: 1 nM antibody preincubated with 10 nM of this hepcidin form in solution, then run over immobilized rhHepc surface; % = free antibody still binding the surface (low % = strong binding to the solution form)
Description: Recombinant hepcidin was immobilized on a CM5 chip according to manufacturer's instructions at a flow rate 10 μL/min of running buffer (DPBS: Dulbecco's Phosphate Buffer Saline1X, GIBCO 14190, with 0.005% BIAcore surfactant P-20). The carboxylated matrix of the sensor chip was first activated with a 100 μL injection of 1:1 mixture of EDC (75 mg/mL N-ethyl-N-(dimethylamine-propyl)carbodiimide in water, from Biacore) and NHS (11.5 mg/mL N-hydroxysuccinimide in water, from Biacore). […]
# Binding to Hepcidin Surface (%) per record follows
I only need the number, in %, no unit after it.

Answered examples (3):
Q) Given murine anti-human hepcidin monoclonal antibody Ab43 (antibody, V domains shown, Mouse hybridoma monoclonal; also called mAB 43) VH: QIQLVQSGPELKKPGETVKISCKASGYTFTTYGMSWVKQAPGKGLKWMGWINTYSGVPTYADDFKGRFAFSLETSASTAYLQINNLKNEDTATYFCASLWYYGRAFDYWGQGTTLTVSS VL: NIVLTQSPASLAVSLGQRATISCRASESVDSYGNSFMHWYQQKPGQPPKLLIYLASNLESGVPARFSGSGSRTDFTLTIDPVEADDAATYYCQQNNEDRTFGGGTKLEIK , state its recorded Binding to Hepcidin Surface (%).
A) 100

Q) // Binding to Hepcidin Surface (%) lookup, key: murine anti-human hepcidin monoclonal antibody 2.7 (antibody, V domains shown, Mouse hybridoma monoclonal; Murine IgG1 was used as its isotypic control; also called Ab2.7; Ab 2.7) VH: QIQLVQSGPELKKPGETVKISCKASGYTFTTYGMSWVKQAPGKGLKWMGWINTYSGVPTYADDFKGRFAFSLETSASTAYLQINNLKNEDTATYFCGRDHYYGEVAYWGQGTLVTVSA VL: DIVLTQSPASLAVSLGQRATISCRASESVDSYGNSFMHWYQQKPGQPPKLLIYRASNLESGIPARFSGSGSRTDFTLTINPVEADDVATYYCHQSNEEYTFGGGTKLEIK
A) 3

Q) Which Binding to Hepcidin Surface (%) value is on record for rat anti-human hepcidin monoclonal antibody R9 (antibody, V domains shown, Rat hybridoma monoclonal; also called mAb R9) VH: QVTLKESGPGILQPSQTLSLTCSFSGFSLSTSGICVSWIRQPSGKGLEWLATICWEDSKGYNPSLKNRLTISKDTSNNQAFLKITSVDTADTAIYYCARPLNYGGYSELELDYWGQGVMVTVSS VL: DIQMTQSPSLLSASVGDRVTLSCKASQNIYKYLNWYQQKLGEAPKLLIYYTNSLQTGIPSRFSGSGSGTDFTLTISSLQPEDVATYYCYQYNSGPTFGAGTKLELK ?
A) 88

More entries:
Q) Look up Binding to Hepcidin Surface (%): murine anti-human hepcidin monoclonal antibody 2.41 (antibody, V domains shown, Mouse hybridoma monoclonal) VH: QIQLVQSGPELKKPGETVKISCKASGYTFTTYGMSWVKQAPGKGLKWMGWINTSSGVPTYADDFMGRFAFSLETSASTAYLQINNLKNEDTATYFCARDRYYGEVAYWGQGTLVTVSA VL: DIVLTQSPASLAVSLGQRATISCRASESVDSFGNSFMHWYQLKPGQPPKLLIYRASNLESGIPARFSGSGSRTDFTLTINPVEADDVAIYYCQQSNEEYTFGGGTKLEIK
A) 1

Data provenance is patent US20080213277A1.
